Assignment: determine reported pKi for the given compounds.
biological target: Bcl-2 (Homo sapiens); construct: without their C-terminal transmembrane domain; GST; made in house; assay: Bcl2/Bim fluorescence polarization assay (FPA); format: binding; conditions: BIM BH3 peptide 5 nM, Bcl-2 11 nM, Ki calculated from FPA data
Answers are plain numbers, as −log10 of the molar value.

Example results:
Compound | Subject Of Test | pKi
O=C(NCC(O)CO)c1cc(Cl)c(O)c(S(=O)(=O)N(Cc2ccc(F)cc2)Cc2cccc(-c3ccc(Cl)cc3)c2)c1 (centres unmarked) [Example 214] | Bcl-2 (Homo sapiens) | 5.74
O=S(=O)(NCc1ccc(CN(Cc2ccc(F)cc2)S(=O)(=O)c2cc(Cl)cc(Cl)c2O)cc1)c1cc(Cl)cc(Cl)c1 [Example 98] | Bcl-2 (Homo sapiens) | 6.64
COc1c(Cl)cc(CN(CCn2ccc3ccccc32)S(=O)(=O)c2cc(C(=O)NCc3ccccc3)cc(Cl)c2O)cc1-c1ccc(Cl)cc1 [Example 222] | Bcl-2 (Homo sapiens) | 6.77
CCCCNC(=O)c1ccc(CN(Cc2ccc(F)cc2)S(=O)(=O)c2cc(Cl)cc(Cl)c2O)cc1 [Example 138] | Bcl-2 (Homo sapiens) | 6.09
O=C(O)c1ccc(S(=O)(=O)NCc2cccc(CN(Cc3ccc(-c4ccccc4)cc3)S(=O)(=O)c3cc(Cl)cc(Cl)c3O)c2)cc1 [Example 49] | Bcl-2 (Homo sapiens) | 6.46

Need pKi for each of these compounds.
1. CS(=O)(=O)c1cccc(CN(Cc2cc(CNC(=O)c3cccc(Oc4ccccc4)c3)cc(Oc3ccc(F)cc3)c2)S(=O)(=O)c2cc(Cl)cc(Cl)c2O)c1 [Example 77]
2. O=C(c1ccc(CN(Cc2ccc(F)cc2)S(=O)(=O)c2cc(Cl)cc(Cl)c2O)cc1)N1CCN(c2cnccn2)CC1 [Example 140]
3. COC(=O)c1cc(Cl)cc(S(=O)(=O)N(Cc2ccc(F)cc2)Cc2cccc(-c3ccc(Cl)cc3)c2)c1O [Example 226]

1: 6.88; 2: 6.18; 3: 5.43

* * *

molecular target: Bcl-2 (Homo sapiens, UniProt P10415)
Sequence (P10415 1-211 limits assumed): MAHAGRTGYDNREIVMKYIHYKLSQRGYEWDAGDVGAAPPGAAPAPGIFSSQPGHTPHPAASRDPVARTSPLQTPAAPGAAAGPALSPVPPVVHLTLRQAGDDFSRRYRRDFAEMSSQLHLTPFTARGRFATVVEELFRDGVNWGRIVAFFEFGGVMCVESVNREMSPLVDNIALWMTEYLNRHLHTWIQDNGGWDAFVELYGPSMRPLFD
pKi: −log10 of the molar value.
Please note: Fulfilled applies when pKi is 7 or greater, and Not fulfilled applies otherwise.

Please indicate if the recorded pKi for CC(C)NC(=O)c1cc(Cl)c(O)c(S(=O)(=O)N(Cc2ccc(F)cc2)Cc2cccc(-c3ccc(Cl)cc3)c2)c1 meets or exceeds 7.
Not fulfilled

Say whether CC(C)CCNC(=O)c1ccc(CN(Cc2ccc(F)cc2)S(=O)(=O)c2cc(Cl)cc(Cl)c2O)cc1 shows pKi of 7 or more.
Not fulfilled

Check the entry CC(C)CN(Cc1cc(Cl)cc(CN(CC(C)C)S(=O)(=O)c2cc(Cl)cc(Cl)c2O)c1)C(=O)c1cccc(S(=O)(=O)C(F)(F)F)c1 : does pKi equal or exceed 7?
Not fulfilled

Could you verify whether the entry CN(C)c1ccc(CNC(=O)c2ccc(CN(Cc3ccc(F)cc3)S(=O)(=O)c3cc(Cl)cc(Cl)c3O)cc2)cc1 shows pKi of no less than 7?
Not fulfilled

* * *

Biological target: Bcl-b (Homo sapiens, UniProt Q9HD36)
Sequence (Q9HD36 1-182 limits assumed): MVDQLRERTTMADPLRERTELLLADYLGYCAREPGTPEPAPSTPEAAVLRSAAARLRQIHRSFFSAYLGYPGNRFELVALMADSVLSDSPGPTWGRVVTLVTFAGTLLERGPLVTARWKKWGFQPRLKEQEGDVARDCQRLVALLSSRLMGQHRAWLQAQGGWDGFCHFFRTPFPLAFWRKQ
pKi: −log10 of the molar value.
Classification field: enter 1 for pKi values not below 7, 0 for values below it.

Reported pKi reaches at least 7 for CN(C)c1ccc(CNC(=O)c2ccc(CN(Cc3ccc(F)cc3)S(=O)(=O)c3cc(Cl)cc(Cl)c3O)cc2)cc1 [Example 150] ?
0

Does pKi meet or surpass 7 for O=C(NCCCO)c1cc(Cl)c(O)c(S(=O)(=O)N(Cc2ccc(F)cc2)Cc2cccc(-c3ccc(Cl)cc3)c2)c1 [Example 213] ?
0

# bool: pKi of O=S(=O)(c1cc(Cl)cc(Cl)c1)N(CCO)Cc1ccc(CN(Cc2ccc(F)cc2)S(=O)(=O)c2cc(Cl)cc(Cl)c2O)cc1 [Example 176] >= 7
0

Check this compound for pKi at or above 7: CC(C)CN(Cc1cccc(CN(Cc2ccc(-c3ccc(F)cc3)cc2)S(=O)(=O)c2cc(Cl)cc(Cl)c2O)c1)C(=O)c1nc2ccccc2s1 [Example 191]
0

Hi, just wondering whether CCCCCCCCc1ccc(CN(Cc2cccc(Oc3ccc(F)cc3)c2)S(=O)(=O)c2cc(Cl)cc(Cl)c2O)cc1 [Example 235] shows pKi of 7 or higher.
1

Can O=S(=O)(c1cccc(CN(Cc2ccc(F)cc2)S(=O)(=O)c2cc(Cl)cc(Cl)c2O)c1)N(Cc1ccc(F)cc1)Cc1cc(Cl)cc(Cl)c1 [Example 94] be said to have pKi at or above 7?
1

Does the reported pKi for O=C(c1ccc(CN(Cc2ccc(F)cc2)S(=O)(=O)c2cc(Cl)cc(Cl)c2O)cc1)N(Cc1ccc(F)cc1)Cc1cc(Cl)cc(Cl)c1 [Example 106] fall at or above the 7 mark?
1

Provenance of the data: patent US8501992B2
